- subject of test: a4b7 integrin interaction with MadCAM-1 (Homo sapiens, UniProt P13612+P26010)
- Construct: capture of a4b7 integrin expressing cells, RPMI8866; endogenous in cells
- test: a4b7 Cell Capture Assay (RPMI8866 cells on MAdCAM-1 Fc coated plates)
- recorded conditions: 50% human serum, 1 mM MgCl2, 1 hour incubation, CellTiter-Glo luminescence, read-out: a4B7 cell capture assay RMPI8866-MadCAM EC50
Returns: string. Value is 1 if measured EC50 is below 200 nM, and 0 if it is greater than or equal to it.

compound="Cc1cc2cc(c1F)[C@H](CC(=O)O)NC(=O)[C@@H](n1cc(CCN3CC(F)C3)c(C(F)(F)F)cc1=O)c1cc(ccc1F)Oc1nn(CC3CC3)cc1-2 (single isomer, unassigned) [Example 60]" cat=0

Check if EC50 falls below 200 nM for Cc1cc2cc(c1F)[C@H](CC(=O)O)NC(=O)[C@@H](n1cc(CCN3CC(F)(F)C3)c(C(F)(F)F)cc1=O)c1cc(ccc1F)COc1cccc(C)c1-2 (single isomer, unassigned) [Example 53] .
1

Also Cc1cc2cc(c1F)[C@H](CC(=O)O)NC(=O)[C@@H](n1cc(CCN3CC(F)C3)c(C(F)(F)F)cc1=O)c1cc(ccc1F)Oc1nn(C)c(C)c1-2 (relative stereo) [Example 40] ?
1

Also Cc1cc2cc(c1F)[C@H](CC(=O)O)NC(=O)[C@@H](n1ccc(C(F)(F)F)cc1=O)c1cc(ccc1F)COc1cccc(C)c1-2 (single isomer, unassigned) [Example 44] ?
1

Also Cc1cccc2c1-c1cc(c(F)c(C(F)(F)F)c1)[C@H](CC(=O)O)NC(=O)[C@@H](n1c(=O)c3ccncc3n(C)c1=O)c1cc(ccc1F)CO2 (single isomer, unassigned) [Example 67] ?
1

====

- subject of test: a4b7 integrin interaction with MadCAM-1 (Homo sapiens, UniProt P13612+P26010)
- Construct: capture of a4b7 integrin expressing cells, RPMI8866; endogenous in cells
- test: a4b7 Cell Capture Assay (RPMI8866 cells on MAdCAM-1 Fc coated plates)
- recorded conditions: 50% human serum, 1 mM MgCl2, 1 hour incubation, CellTiter-Glo luminescence, read-out: a4B7 cell capture assay RMPI8866-MadCAM EC50
quantity kind: EC50 (nM)
Write the number in nM without appending the unit.

compound="Cc1cccc2c1-c1cc(C3CC3)c(F)c(c1)[C@H](CC(=O)O)NC(=O)[C@@H](n1cc(CCN3CC(F)C3)c(C(F)(F)F)cc1=O)c1cc(ccc1F)O2 (relative stereo) [Example 24]" quantity_kind=EC50 assay_value=1.9

Find the recorded EC50 belonging to Cc1cc2cc(c1F)[C@H](CC(=O)O)NC(=O)[C@@H](n1cc(CCN3CC(F)C3)c(C(F)(F)F)cc1=O)c1cc(ccc1F)Oc1cc(C(F)(F)F)cc(C)c1-2 (single isomer, unassigned) [Example 64] and report it.
6.4

Also Cc1cccc2c1-c1cc(c(F)c(C(F)(F)F)c1)[C@H](CC(=O)O)NC(=O)[C@@H](n1cc(CCN3CC(F)C3)c(C(F)(F)F)cc1=O)c1cc(ccc1F)CO2 (relative stereo) [Example 35] ?
7.7

Also Cc1cc2cc(c1F)[C@H](CC(=O)O)NC(=O)[C@@H](n1cc(CCN3CC(F)C3)c(C(F)(F)F)cc1=O)c1cc(ccc1F)COc1cccc(C)c1-2 (relative stereo) [Example 36] ?
5.2

Also Cc1cccc2c1-c1cc(c(F)c(C(F)(F)F)c1)[C@H](CC(=O)O)NC(=O)[C@@H](n1cc(CCN3CC(F)C3)c(C(F)(F)F)cc1=O)c1cccc(c1)O2 (relative stereo) [Example 6] ?
230

Also Cc1ccc(C)c2c1Oc1cccc(c1)[C@H](n1cc(CCN3CC(F)C3)c(C(F)(F)F)cc1=O)C(=O)N[C@@H](CC(=O)O)c1cc-2cc(C(F)(F)F)c1F (relative stereo) [Example 12] ?
970

Also Cc1cccc2c1-c1cc(c(F)c(C(F)(F)F)c1)[C@H](CC(=O)O)NC(=O)[C@@H](n1cc(CCN(C)C)c(C(F)(F)F)cc1=O)c1cccc(c1)O2 (relative stereo) [Example 16] ?
14

Also Cc1cc2cc(c1F)[C@H](CC(=O)O)NC(=O)[C@@H](n1cc(CCN3CC(F)C3)c(C(F)(F)F)cc1=O)c1cc(ccc1F)COc1cc(C(F)(F)F)cc(C)c1-2 (relative stereo) [Example 65] ?
77

Also Cc1cc2cc(c1F)[C@H](CC(=O)O)NC(=O)[C@@H](n1cc(CCN3CCC(F)(F)CC3)c(C(F)(F)F)cc1=O)c1cc(ccc1F)COc1cccc(C)c1-2 (single isomer, unassigned) [Example 62] ?
33

Also Cc1ccc2cc1[C@H](n1cc(CCN3CC(F)C3)c(C(F)(F)F)cc1=O)C(=O)N[C@@H](CC(=O)O)c1cc(cc(C)c1F)-c1c(C)cccc1O2 (single isomer, unassigned) [Example 71] ?
3.5

====

- subject of test: a4b7 integrin interaction with MadCAM-1 (Homo sapiens, UniProt P13612+P26010)
- Construct: capture of a4b7 integrin expressing cells, RPMI8866; endogenous in cells; host or cells: RPMI8866
- Sequence (P13612 34-1032): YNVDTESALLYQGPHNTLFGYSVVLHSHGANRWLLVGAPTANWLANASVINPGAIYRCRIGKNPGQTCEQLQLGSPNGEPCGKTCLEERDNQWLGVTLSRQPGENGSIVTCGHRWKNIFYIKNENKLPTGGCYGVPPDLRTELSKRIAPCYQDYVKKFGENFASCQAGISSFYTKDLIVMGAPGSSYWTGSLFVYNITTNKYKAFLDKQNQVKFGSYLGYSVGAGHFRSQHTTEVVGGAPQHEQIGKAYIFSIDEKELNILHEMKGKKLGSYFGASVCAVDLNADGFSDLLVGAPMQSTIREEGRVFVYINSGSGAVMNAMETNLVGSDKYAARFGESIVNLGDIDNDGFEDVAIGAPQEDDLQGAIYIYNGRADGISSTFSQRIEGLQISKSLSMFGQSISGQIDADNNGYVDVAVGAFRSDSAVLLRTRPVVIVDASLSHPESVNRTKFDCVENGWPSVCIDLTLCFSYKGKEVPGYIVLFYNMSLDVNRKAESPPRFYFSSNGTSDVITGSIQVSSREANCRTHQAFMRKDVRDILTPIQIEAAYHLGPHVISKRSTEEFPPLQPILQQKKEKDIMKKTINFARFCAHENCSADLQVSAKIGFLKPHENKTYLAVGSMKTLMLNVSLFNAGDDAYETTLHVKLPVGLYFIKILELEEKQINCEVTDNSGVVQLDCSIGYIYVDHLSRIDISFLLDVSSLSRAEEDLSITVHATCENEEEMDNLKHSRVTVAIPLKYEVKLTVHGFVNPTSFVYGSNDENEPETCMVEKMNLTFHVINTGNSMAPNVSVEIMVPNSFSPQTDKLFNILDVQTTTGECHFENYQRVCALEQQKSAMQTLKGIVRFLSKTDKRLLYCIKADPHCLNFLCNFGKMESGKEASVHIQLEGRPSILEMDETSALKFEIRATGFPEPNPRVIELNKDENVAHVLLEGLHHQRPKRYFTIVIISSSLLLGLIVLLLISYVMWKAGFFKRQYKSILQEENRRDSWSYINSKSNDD
- Sequence (P26010 20-798): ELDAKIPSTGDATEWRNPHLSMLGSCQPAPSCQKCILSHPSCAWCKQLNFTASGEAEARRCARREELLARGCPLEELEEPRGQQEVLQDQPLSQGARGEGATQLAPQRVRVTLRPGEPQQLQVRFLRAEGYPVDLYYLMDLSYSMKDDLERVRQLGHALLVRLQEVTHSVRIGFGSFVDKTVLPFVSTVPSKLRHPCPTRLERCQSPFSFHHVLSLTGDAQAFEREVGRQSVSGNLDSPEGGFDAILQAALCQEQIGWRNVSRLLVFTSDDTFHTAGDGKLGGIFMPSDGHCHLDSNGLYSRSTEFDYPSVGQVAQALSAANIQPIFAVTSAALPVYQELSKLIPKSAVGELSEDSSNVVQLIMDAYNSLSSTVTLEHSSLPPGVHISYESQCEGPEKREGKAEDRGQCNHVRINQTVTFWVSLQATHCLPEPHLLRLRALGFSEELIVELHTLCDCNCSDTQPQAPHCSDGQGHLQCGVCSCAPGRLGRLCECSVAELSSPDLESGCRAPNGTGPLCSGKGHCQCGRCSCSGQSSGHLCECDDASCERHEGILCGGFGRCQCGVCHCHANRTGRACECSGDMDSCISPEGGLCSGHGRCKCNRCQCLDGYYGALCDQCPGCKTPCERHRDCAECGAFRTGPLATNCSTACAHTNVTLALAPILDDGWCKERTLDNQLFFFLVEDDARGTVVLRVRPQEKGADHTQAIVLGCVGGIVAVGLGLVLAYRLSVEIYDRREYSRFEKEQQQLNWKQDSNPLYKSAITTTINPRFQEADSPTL
- test: a4b7 Cell Capture Assay (RPMI8866 cells on MAdCAM-1 Fc coated plates)
- Assay type: cell-based
- recorded conditions: 50% human serum, 1 mM MgCl2, 1 hour incubation, CellTiter-Glo luminescence, read-out: a4B7 cell capture assay RMPI8866-MadCAM EC50
Returns: string. Value is condition met if measured EC50 is below 30 nM, and condition not met if it is greater than or equal to it.

compound="Cc1cc2cc(c1F)[C@H](CC(=O)O)NC(=O)[C@@H](n1cc(CCN3CC(F)C3)c(C(F)(F)F)cc1=O)c1cc(ccc1F)Oc1cc(F)cc(C)c1-2 (relative stereo)" subject_of_test="a4b7 integrin interaction with MadCAM-1 (Homo sapiens, UniProt P13612+P26010)" cat="condition met"
compound="Cc1cccc2c1-c1cc(C3CC3)c(F)c(c1)[C@H](CC(=O)O)NC(=O)[C@@H](n1ccc(C(F)(F)F)cc1=O)c1cc(ccc1F)CO2 (single isomer, unassigned)" subject_of_test="a4b7 integrin interaction with MadCAM-1 (Homo sapiens, UniProt P13612+P26010)" cat="condition not met"
compound="COc1cc(C)c2c(c1)Oc1ccc(F)c(c1)[C@H](n1ccc(C(F)(F)F)cc1=O)C(=O)N[C@@H](CC(=O)O)c1cc-2cc(C)c1F (single isomer, unassigned)" subject_of_test="a4b7 integrin interaction with MadCAM-1 (Homo sapiens, UniProt P13612+P26010)" cat="condition not met"
compound="Cc1cccc2c1-c1cc(C(F)F)c(F)c(c1)[C@H](CC(=O)O)NC(=O)[C@@H](n1cc(CCN3CC(F)C3)c(C(F)(F)F)cc1=O)c1cc(ccc1F)O2 (relative stereo)" subject_of_test="a4b7 integrin interaction with MadCAM-1 (Homo sapiens, UniProt P13612+P26010)" cat="condition met"

Check if EC50 falls below 30 nM for Cc1cc2cc(c1F)[C@H](CC(=O)O)NC(=O)[C@@H](n1cc(CCN3CC(F)C3)c(C(F)(F)F)cc1=O)c1cc(ccc1F)COc1ccc(F)cc1-2 (single isomer, unassigned) .
condition not met

Also Cc1cc2cc(c1F)[C@H](CC(=O)O)NC(=O)[C@@H](n1cc(CCN3CC(F)C3)c(C(F)(F)F)cc1=O)c1cc(ccc1Cl)COc1cccc(C)c1-2 (single isomer, unassigned) ?
condition met
